- targetOfAssay: Nuclear receptor coactivator 1 (Homo sapiens) (UniProt Q15788)
- Sequence (Q15788 whole entry, looked up): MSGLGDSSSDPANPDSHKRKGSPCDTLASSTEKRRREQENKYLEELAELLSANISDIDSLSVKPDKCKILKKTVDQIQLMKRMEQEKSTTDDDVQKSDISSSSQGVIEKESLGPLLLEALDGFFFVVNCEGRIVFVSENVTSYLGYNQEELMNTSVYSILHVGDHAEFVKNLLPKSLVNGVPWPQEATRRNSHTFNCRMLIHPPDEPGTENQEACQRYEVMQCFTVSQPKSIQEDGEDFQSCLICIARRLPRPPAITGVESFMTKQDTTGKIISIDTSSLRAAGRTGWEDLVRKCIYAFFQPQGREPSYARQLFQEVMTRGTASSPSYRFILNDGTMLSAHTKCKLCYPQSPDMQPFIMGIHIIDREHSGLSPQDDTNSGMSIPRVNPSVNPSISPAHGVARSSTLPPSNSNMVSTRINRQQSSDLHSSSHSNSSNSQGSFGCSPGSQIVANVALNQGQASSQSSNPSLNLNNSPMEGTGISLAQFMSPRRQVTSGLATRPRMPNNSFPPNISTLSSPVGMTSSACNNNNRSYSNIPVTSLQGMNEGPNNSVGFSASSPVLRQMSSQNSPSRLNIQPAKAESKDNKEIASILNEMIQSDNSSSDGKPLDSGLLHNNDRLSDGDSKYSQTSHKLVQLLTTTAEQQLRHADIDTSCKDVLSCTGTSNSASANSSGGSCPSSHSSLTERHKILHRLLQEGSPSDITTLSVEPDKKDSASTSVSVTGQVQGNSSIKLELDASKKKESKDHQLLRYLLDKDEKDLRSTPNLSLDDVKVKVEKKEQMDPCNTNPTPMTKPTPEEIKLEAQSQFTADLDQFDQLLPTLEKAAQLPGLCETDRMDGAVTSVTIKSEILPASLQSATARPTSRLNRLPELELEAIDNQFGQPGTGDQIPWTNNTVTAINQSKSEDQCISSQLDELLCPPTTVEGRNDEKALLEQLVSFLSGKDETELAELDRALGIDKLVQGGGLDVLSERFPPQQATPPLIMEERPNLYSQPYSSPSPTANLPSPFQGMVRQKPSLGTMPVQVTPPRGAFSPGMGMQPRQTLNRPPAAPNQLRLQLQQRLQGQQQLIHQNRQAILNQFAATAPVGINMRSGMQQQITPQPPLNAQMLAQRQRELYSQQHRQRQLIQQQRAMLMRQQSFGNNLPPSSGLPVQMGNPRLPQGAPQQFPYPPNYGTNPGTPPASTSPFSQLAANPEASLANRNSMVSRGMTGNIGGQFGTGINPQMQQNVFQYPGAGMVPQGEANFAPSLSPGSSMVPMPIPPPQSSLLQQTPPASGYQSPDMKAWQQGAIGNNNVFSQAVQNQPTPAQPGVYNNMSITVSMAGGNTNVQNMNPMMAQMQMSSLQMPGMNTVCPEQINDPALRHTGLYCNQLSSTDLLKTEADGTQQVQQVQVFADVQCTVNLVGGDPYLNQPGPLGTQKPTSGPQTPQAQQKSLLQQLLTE
- experimentalDetails: SRC1 coactivator transcriptional activity inhibitors, primary screen, cell-based, luminescence (AID 588354);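 further: 0% = DMSO treated cells and 100% = gossypol at 36 µM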
- conditionNotes: HEK293 GAL4-SRC1 luciferase reporter, at 3.6 µM, active compounds read high
Out of some 360,000 compounds screened, about 430 (0.12%) were called active. For the sample, actives were picked, then their nearest neighbours and some compounds at random.
quantityKind: inhibition (%)

1. CCOc1ccccc1NS(=O)(=O)c1c[nH]c(C(=O)OC)c1 :: -15
2. CN(CCOc1ccc(Br)cc1)CC(=O)Nc1cccc(S(=O)(=O)NC2=NCCC2)c1 :: -16.8
3. CCOc1cc(CNCc2ccccn2)ccc1OCC(=O)NC(C)(C)C :: 10.8
4. COc1ccc(-c2nnc(SCC(=O)Nc3cccnc3Cl)n2C)cc1 :: 16.4
5. CN(C)/C=C(/C(=O)c1ccccc1Cl)S(C)(=O)=O :: -22.7
6. CC1=CC(C)(C)Nc2ccc(OC(=O)CN3C(=O)C4CCCCC4C3=O)cc21 (stereo not given) :: -14.7
7. CC1CCCCC12NC(=O)N(CC(=O)N1CCN(c3ccccc3)CC1)C2=O (stereo not given) :: 1.99
8. O=C(Nc1cc(S(=O)(=O)N2CCOCC2)ccc1N1CCOCC1)c1c(F)cccc1Cl :: 4.42
9. C[C@@H]1C[C@@H]2O[C@H]2/C=C\C=C\C(=O)Cc2c(Cl)c(O)cc(O)c2C(=O)O1 :: 53.8
10. CC(C)CN(C(=O)CSc1nncn1C)C1CCS(=O)(=O)C1 (stereo not given) :: 14

* * *

- targetOfAssay: Nuclear receptor coactivator 1 (Homo sapiens)
- experimentalDetails: SRC1 coactivator transcriptional activity inhibitors, primary screen, cell-based, luminescence (AID 588354);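 further: 0% = DMSO treated cells and 100% = gossypol at 36 µM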
- conditionNotes: HEK293 GAL4-SRC1 luciferase reporter, at 3.6 µM, active compounds read high
Among all 360,000 compounds or so, about 430 (0.12%) were called active. This is one part of a sample in which actives are shown more often than they occur.
quantityKind: inhibition

1. COc1ccc(CN2CCC(c3nc4ccc(Cl)cc4[nH]3)CC2)cc1 :: 2.53% (inactive)
2. O=C(CC1Nc2ccccc2NC1=O)Nc1ccccc1 (configuration not stated) :: -51.2% (inactive)
3. CCc1ccc(CN(C)C(=O)C2CCC(=O)N(Cc3cccc(OC)c3)C2)nc1 (configuration not stated) :: 5.84% (inactive)
4. C=CCOc1cccc(C2NC(=O)c3ccccc3O2)c1 (configuration not stated) :: 3.13% (inactive)
5. Cc1[nH]c(C)c(S(=O)(=O)N2CCC(C)CC2)c1C(=O)N1CCCC1 :: 0.69% (inactive)
6. O=C(CCCN=C1NS(=O)(=O)c2ccccc21)OCC(=O)c1ccc(F)c(F)c1 :: -0.01% (inactive)
7. c1cnc(NC2C3CC4CC(C3)CC2C4)nc1 (configuration not stated) :: -13.6% (inactive)
8. O=C(N/N=C/c1ccccc1O)/C(=C/c1ccccc1)CCO :: 30.9% (inactive)
9. CCOc1ccc(S(=O)(=O)N2CCC(C(=O)NCC(=O)Nc3cccc(Cl)c3C)CC2)cc1 :: -15% (inactive)
10. C=CCn1c(C)cc(C2=NNC(=NCC)SC2)c1C :: 87.5% (active)
11. Cc1ccc(C)c(OCc2cc(C(=O)N3CCN(c4cnccn4)CC3)no2)c1 :: -12.1% (inactive)
12. Cc1nc(-c2ccccc2)sc1-c1nc(-c2ccccc2)ncc1S(=O)(=O)c1ccccc1 :: 7.02% (inactive)
13. O=C(c1ccc(F)c(S(=O)(=O)N2CCOCC2)c1)N(CCc1ccccc1)Cc1ccccc1 :: -1.71% (inactive)
14. COc1ccccc1C(=O)NC(=O)COC(=O)c1ccco1 :: 3.45% (inactive)
15. CCOc1ccc(CNC(=O)C2CC(=O)N(C3CCCC3)C2)cc1OC (configuration not stated) :: -4.04% (inactive)
16. C=CCOc1ccccc1/C=N/NC(=O)Cc1ccccc1 :: -8.79% (inactive)
17. Cc1cc(=O)oc2c3c(cc(OCC(=O)NCC(O)c4ccccc4)c12)OC(C)(C)CC3 (configuration not stated) :: -22.4% (inactive)
